System: crabgrass
ASSAY INFO: Test B pre/postemergence crabgrass
Format: in vivo, Digitaria sanguinalis
EXPERIMENTAL CONDITIONS: Rate 500 g/ha, Postemergence; 0 to 10 scale (0 no effect, 10 complete control)
# key: entry, value: Crabgrass plant response rating
Please give only the number in your answer, with no unit.

Reference set (3 entries):
>>> df
                                   molecule  study_target  value_measured
0  CCN(CC)C(=O)n1oc(=O)n(-c2cc(Cl)cc(Cl)c2)c1=O [Compound 11]     crabgrass               0
1  CC(C)N(C(=O)n1oc(=O)n(-c2ccccc2)c1=O)c1ccc(F)cc1 [Compound 38]     crabgrass               9
2  CC(C)N(C(=O)n1oc(=O)n(-c2ccccc2C(F)(F)F)c1=O)c1ccc(F)cc1 [Compound 15]     crabgrass               8

// next entry
Prompt line: Query the reported Crabgrass plant response rating for crabgrass; item: Cc1ccc(N(C(=O)n2oc(=O)n(-c3ccccc3C)c2=O)C(C)C)cc1 [Compound 40]
Response line: 7

---

System: velvetleaf
ASSAY INFO: Test B pre/postemergence velvetleaf
Assay type: in vivo, Abutilon theophrasti
EXPERIMENTAL CONDITIONS: Preemergence, Rate 125 g/ha; scale of 0 to 10 where 0 is no effect and 10 is complete control
RECORDED ENDPOINT: Velvetleaf plant response rating

Reference set (3 entries):
                                   compound  value_measured
0  CC(C)N(C(=O)n1oc(=O)n(CC(=O)N(C)C)c1=O)c1ccc(F)cc1               0
1  CC(C)N(C(=O)n1oc(=O)n(CC(=O)C(F)(F)F)c1=O)c1ccc(F)cc1F               0
2  CC(C)N(C(=O)n1oc(=O)n(CCF)c1=O)c1ccc(Cl)cc1               6

// next entry
Prompt line: State the recorded Velvetleaf plant response rating for this entry: COC(C)n1c(=O)on(C(=O)N(c2ccc(Cl)cc2)C(C)C)c1=O (stereo not shown)
Response line: 0

---

Test system: wheat
ASSAY INFO: Test B pre/postemergence wheat
Type: in vivo, Triticum aestivum
EXPERIMENTAL CONDITIONS: Preemergence, Rate 500 g/ha; scale of 0 to 10 where 0 is no effect and 10 is complete control
# key: entry, value: Plant response rating, Wheat
Please give only the number in your answer, with no unit.

In [3]: df
Out[3]:
                                   compound             recorded_endpoint  value_measured
0  Cc1ccccc1-n1c(=O)on(C(=O)N(c2ccc3c(c2)CCC3)C(C)C)c1=O  Plant response rating, Wheat               0
1  CC(C)N(C(=O)n1oc(=O)n(CC(C)(C)C)c1=O)c1ccc(F)cc1  Plant response rating, Wheat               5
2  CCC(C)n1c(=O)on(C(=O)N(c2ccccc2)C(C)C)c1=O (stereo not drawn)  Plant response rating, Wheat               8
3  COC(=O)C(C)n1c(=O)on(C(=O)N(c2ccc(F)cc2)C(C)C)c1=O (stereo not drawn)  Plant response rating, Wheat               0
4  CCOC(=O)C(C)N(C(=O)n1oc(=O)n(CC)c1=O)c1ccc(F)cc1 (stereo not drawn)  Plant response rating, Wheat               0
5  COCCn1c(=O)on(C(=O)N(c2ccccc2)C(C)C)c1=O  Plant response rating, Wheat               9
6  CC(C)N(C(=O)n1oc(=O)n(Cc2ccco2)c1=O)c1ccc(Cl)cc1  Plant response rating, Wheat               0
7  C#CC(C=C(C)C)n1c(=O)on(C(=O)N(c2ccccc2)C(C)C)c1=O (stereo not drawn)  Plant response rating, Wheat               0

Prompt line: State the recorded Plant response rating, Wheat for this entry: `CC(C)N(C(=O)n1oc(=O)n(-c2ccsc2)c1=O)c1ccc(F)cc1`
Response line: 0
